conditions: in n-butanol, 303.15 K
readout.label: solubility (mole fraction)
// no unit, no text: just the number

// Cc1ccc(N)c([N+](=O)[O-])c1 : solubility (mole fraction) value = 0.0297

###

settings: in 1,2-dichloroethane, 308.15 K
readout.label: solubility (mole fraction)

// Cc1ccc(N)c([N+](=O)[O-])c1 : solubility (mole fraction) value = 0.0806

###

settings: in acetonitrile, 285.65 K
readout.label: solubility (mole fraction)

// Cc1ccc(N)c([N+](=O)[O-])c1 : solubility (mole fraction) value = 0.0369

###

settings: in chlorobenzene, 283.15 K
readout.label: solubility (mole fraction)
// no unit, no text: just the number

// Cc1ccc(N)c([N+](=O)[O-])c1 : solubility (mole fraction) value = 0.0194

###

conditions: in toluene, 303.15 K
readout.label: solubility (mole fraction)

// Cc1ccc(N)c([N+](=O)[O-])c1 : solubility (mole fraction) value = 0.0312

###

conditions: in tetrachloromethane, 300.65 K
readout.label: solubility (mole fraction)
// no unit, no text: just the number

// Cc1ccc(N)c([N+](=O)[O-])c1 : solubility (mole fraction) value = 0.00602

###

settings: in 1,2-dichloroethane, 310.65 K
readout.label: solubility (mole fraction)
// no unit, no text: just the number

// Cc1ccc(N)c([N+](=O)[O-])c1 : solubility (mole fraction) value = 0.087

###

conditions: in acetonitrile, 313.15 K
readout.label: solubility (mole fraction)
// no unit, no text: just the number

// Cc1ccc(N)c([N+](=O)[O-])c1 : solubility (mole fraction) value = 0.105

###

conditions: in 2-butanone, 313.15 K
readout.label: solubility (mole fraction)

// Cc1ccc(N)c([N+](=O)[O-])c1 : solubility (mole fraction) value = 0.261

###

settings: in ethanol, 288.15 K
readout.label: solubility (mole fraction)
// no unit, no text: just the number

// Cc1ccc(N)c([N+](=O)[O-])c1 : solubility (mole fraction) value = 0.0139

###

settings: in n-propanol, 310.65 K
readout.label: solubility (mole fraction)

// Cc1ccc(N)c([N+](=O)[O-])c1 : solubility (mole fraction) value = 0.0326

###

settings: in acetonitrile, 293.15 K
readout.label: solubility (mole fraction)
// no unit, no text: just the number

// Cc1ccc(N)c([N+](=O)[O-])c1 : solubility (mole fraction) value = 0.0493

###

details: in chlorobenzene, 288.15 K
readout.label: solubility (mole fraction)

// Cc1ccc(N)c([N+](=O)[O-])c1 : solubility (mole fraction) value = 0.0239

###

details: in DMF, 313.15 K
readout.label: solubility (mole fraction)
// no unit, no text: just the number

// Cc1ccc(N)c([N+](=O)[O-])c1 : solubility (mole fraction) value = 0.247

###

settings: in chlorobenzene, 295.65 K
readout.label: solubility (mole fraction)

// Cc1ccc(N)c([N+](=O)[O-])c1 : solubility (mole fraction) value = 0.0316

###

conditions: in ethyl acetate, 288.15 K
readout.label: solubility (mole fraction)
// no unit, no text: just the number

// Cc1ccc(N)c([N+](=O)[O-])c1 : solubility (mole fraction) value = 0.0996

###

settings: in isopropanol, 300.65 K
readout.label: solubility (mole fraction)
// no unit, no text: just the number

// Cc1ccc(N)c([N+](=O)[O-])c1 : solubility (mole fraction) value = 0.0227
